# Experiment summary: Pharmacokinetics in the rabbit after IV and IN administration
# Type: in vivo, New Zealand White rabbits
# Experimental parameters: male, New Zealand White, plasma, inhaled or intranasal, IN low dose 0.3 mg/kg, read-out: Tmax
Measured attribute: Tmax (min)
Answers are plain numbers, in min.

Field request: Tmax | item: Cc1cc(C[C@@H](NC(=O)N2CCC(c3cc4ccccc4[nH]c3=O)CC2)C(=O)N2CCN(C3CCN(C)CC3)CC2)cc2cn[nH]c12 15

---

# Experiment summary: One-week comparative intranasal irritation study in rats: toxicokinetics
# Experimental parameters: male, rat, in vivo, other: intranasal instillation, 35 mg, intranasal 35 mg (2.50 mg/cm^2) once daily, Day 6, read-out: Mean C24 h
Measured attribute: concentration at 24 h (nM)
Numbers only, in nM.

Would you mind telling me what concentration at 24 h value was observed for Cc1cc(C[C@@H](NC(=O)N2CCC(c3cc4ccccc4[nH]c3=O)CC2)C(=O)N2CCN(C3CCN(C)CC3)CC2)cc2cn[nH]c12 [Compound I] ? 36

---

# Experiment summary: One-week comparative intranasal irritation study in rats: toxicokinetics
# Experimental parameters: male, rat, in vivo, inhaled or intranasal, 15 mg, intranasal 15 mg (1.07 mg/cm^2) once daily, Day 6, read-out: Mean T1/2 (converted)
Measured attribute: half-life (h)
Answers are plain numbers, in h.

I am curious: what half-life value has been reported for Cc1cc(C[C@@H](NC(=O)N2CCC(c3cc4ccccc4[nH]c3=O)CC2)C(=O)N2CCN(C3CCN(C)CC3)CC2)cc2cn[nH]c12 [Compound I] ? 6.7

---

# Experiment summary: One-week comparative intranasal irritation study in rats: toxicokinetics
# Experimental parameters: male, rat, in vivo, other: intranasal instillation, 5 mg, intranasal 5 mg (0.357 mg/cm^2) once daily, Day 0, read-out: Mean C24 h
Measured attribute: concentration at 24 h
# output: number + unit

Quick check: concentration at 24 h of Cc1cc(C[C@@H](NC(=O)N2CCC(c3cc4ccccc4[nH]c3=O)CC2)C(=O)N2CCN(C3CCN(C)CC3)CC2)cc2cn[nH]c12 ? 22 nM

---

# Experiment summary: One-week comparative intranasal irritation study in rats: toxicokinetics
# Experimental parameters: male, rat, in vivo, inhaled or intranasal, 5 mg, intranasal 5 mg (0.357 mg/cm^2) once daily, Day 6
Measured attribute: Tmax
I'd appreciate it if you included the unit after the number.

Tmax lookup needed for Cc1cc(C[C@@H](NC(=O)N2CCC(c3cc4ccccc4[nH]c3=O)CC2)C(=O)N2CCN(C3CCN(C)CC3)CC2)cc2cn[nH]c12 , thanks. 1 h

---

# Experiment summary: One-week comparative intranasal irritation study in rats: toxicokinetics
# Experimental parameters: male, rat, in vivo, other: intranasal instillation, 15 mg, intranasal 15 mg (1.07 mg/cm^2) once daily, Day 6, read-out: Mean C24 h
Measured attribute: concentration at 24 h

What value of concentration at 24 h has been recorded for this entry: Cc1cc(C[C@@H](NC(=O)N2CCC(c3cc4ccccc4[nH]c3=O)CC2)C(=O)N2CCN(C3CCN(C)CC3)CC2)cc2cn[nH]c12 59 nM

---

# Study system: CGRP receptor in attached whole SK-N-MC cells (Homo sapiens, UniProt O60894+Q16602)
# Construct: endogenous in cells
# Sequence (Q16602 23-461): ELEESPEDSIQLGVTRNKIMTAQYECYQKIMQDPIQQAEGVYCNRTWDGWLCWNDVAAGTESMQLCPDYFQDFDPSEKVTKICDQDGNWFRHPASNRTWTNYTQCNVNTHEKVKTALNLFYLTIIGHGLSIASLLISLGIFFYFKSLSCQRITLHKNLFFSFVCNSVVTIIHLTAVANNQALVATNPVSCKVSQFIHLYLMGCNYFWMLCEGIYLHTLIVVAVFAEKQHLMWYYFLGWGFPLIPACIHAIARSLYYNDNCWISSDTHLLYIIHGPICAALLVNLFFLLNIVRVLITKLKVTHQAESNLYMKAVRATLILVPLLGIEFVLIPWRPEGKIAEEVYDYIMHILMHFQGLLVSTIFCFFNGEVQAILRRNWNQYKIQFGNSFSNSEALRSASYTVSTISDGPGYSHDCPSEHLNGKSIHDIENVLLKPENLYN
# Sequence (O60894 27-148): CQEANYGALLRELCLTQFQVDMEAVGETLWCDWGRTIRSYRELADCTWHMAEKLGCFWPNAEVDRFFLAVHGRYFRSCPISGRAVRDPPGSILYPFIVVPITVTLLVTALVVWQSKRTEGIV
# Experiment summary: Cellular functional assay, cyclic AMP assay
# Experimental parameters: 0.3 nM CGRP, read-out: IC50, inhibition of CGRP-stimulated cAMP production
Measured attribute: pIC50
Numbers only, as −log10 of the molar value.

For Cc1cc(C[C@@H](NC(=O)N2CCC(c3cc4ccccc4[nH]c3=O)CC2)C(=O)N2CCN(C3CCN(C)CC3)CC2)cc2cn[nH]c12 , what is its reported pIC50? 10.41
